test: Inhibition of Staphylococcus aureus AgrC1-mediated RNA3 promoter activation
parameter: IC50 (nM)
The answer is to be given in nM; state only the numeric part.

Tell me the measured IC50 of CC1CCCN(C(C(=O)Nc2ccc3c(c2)OCCO3)c2ccccc2)C1 (stereo unspecified) , please.
100

---

experiment: Inhibition of Staphylococcus aureus AgrC3
Positions of bridges follow the written chain, without caps; N, C: chain ends. Residues, ends and D or L forms follow the SMILES beside them.
Quick list: IC50 per entry.

- compound: "CC[C@H](C)[C@@H]1NC(=O)[C@H](Cc2ccccc2)NC(=O)[C@H](CC(=O)O)NC(=O)[C@@H](NC(=O)[C@@H](NC(=O)[C@H](CO)NC(=O)[C@@H](N)Cc2ccc(O)cc2)[C@@H](C)O)CSC(=O)[C@H](CCSC)NC1=O (H-YSTCDFIM; thioester 4-C)"
  result: "3 nM"
- compound: "COc1ccc(NC(=O)C(c2cc3c(cc2[N+](=O)[O-])OCO3)N2CC(C)CC(C)C2)cc1 (centres undefined)"
  result: "1310 nM"
- compound: "CC1CCCN(C(C(=O)Nc2ccc3c(c2)OCO3)c2ccccc2)C1 (centres undefined)"
  result: "160 nM"

Tell me the measured IC50 of CC1CCN(C(C(=O)Nc2ccc(C(C)C)cc2)c2ccc3c(c2)OCO3)CC1 (centres undefined) , please.
720 nM

Similarly, CC1CCN(C(C(=O)Nc2ccc3c(c2)OCO3)c2ccccc2)CC1 (centres undefined) ?
980 nM

Similarly, CC[C@H](C)[C@@H]1NC(=O)[C@H](Cc2ccccc2)NC(=O)[C@H](Cc2ccc(O)cc2)NC(=O)[C@@H](NC(C)=O)CSC(=O)[C@H](CCSC)NC1=O (Ac-CYFIM; thioester 1-C) ?
10 nM

Similarly, CC1CCCN(C(C(=O)Nc2ccc3c(c2)OCCO3)c2ccccc2)C1 (centres undefined) ?
130 nM

Similarly, CC[C@H](C)[C@@H]1NC(=O)[C@H](Cc2ccccc2)NC(=O)[C@H](C)NC(=O)[C@@H](NC(=O)[C@@H](NC(=O)[C@H](CO)NC(=O)[C@@H](N)Cc2ccc(O)cc2)[C@@H](C)O)CSC(=O)[C@H](CCSC)NC1=O (H-YSTCAFIM; thioester 4-C) ?
0.3 nM

Similarly, CC[C@H](C)[C@@H]1NC(=O)[C@H](Cc2ccccc2)NC(=O)[C@H](C)NC(=O)[C@@H](NC(C)=O)CSC(=O)[C@H](CCSC)NC1=O (Ac-CAFIM; thioester 1-C) ?
0.1 nM

Similarly, CC(C)c1ccc(NC(=O)C(c2ccc3c(c2)OCO3)N2CCCCC2)cc1 (centres undefined) ?
250 nM

Similarly, O=C(Nc1ccc2c(c1)OCO2)C(c1ccccc1)N1CCC(Cc2ccccc2)CC1 (centres undefined) ?
980 nM

Similarly, O=C(Nc1ccc2c(c1)OCO2)C(c1ccccc1)N1CCCCC1 (centres undefined) ?
1260 nM

Similarly, CC(=O)N[C@H]1CSC(=O)[C@H](Cc2ccccc2)NC(=O)[C@H](CC(C)C)NC(=O)[C@H](CO)NC(=O)[C@H](CO)NC1=O (Ac-CSSLF; thioester 1-C) ?
4 nM

Similarly, CC[C@H](C)[C@@H]1NC(=O)[C@H](Cc2ccccc2)NC(=O)[C@H](CC(=O)O)NC(=O)[C@@H](NC(C)=O)CSC(=O)[C@H](CCSC)NC1=O (Ac-CDFIM; thioester 1-C) ?
240 nM
